FYI, the data here is from the supplement of paper PMC10567573.

So I've got a bunch of variants here, and I need their protein stability index values.
B1: ZNF263 (parent)
chain: CSECGESFSRSSRLMSHQRTHTG

variants of: B1; experiment: protein stability index of a GFP-peptide fusion (GPS, HEK-293T) (PSI 1-6); higher = more stable; settings: c terminus: native;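 further: lentivirally expressed fusions sorted by FACS into six bins by GFP to DsRed ratio, PSI derived from sequencing read proportions per bin multiplied by bin number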
Give bare numbers.

Consider the following illustrative entries.
1) E6P	1.92
2) G23Y	3.29
3) S7H	2.58
4) C1W	1.56
5) S2Q	2.84

I need protein stability index for every entry listed below, if you could help.
1. H21Y
2. S16W
3. S7A
4. S7W
5. E6F

Result:
1. 2.64
2. 1.83
3. 2.94
4. 3.75
5. 1.61

For each of the items listed, what is its protein stability index?
1. S12V
2. M15D
3. G5F
4. S2C
5. F8D
6. G23T
7. G5S
8. F8Y

Result:
1.86
3.48
3.91
1.79
2.63
4.04
1.69
2.39
